Here, each record is paired with measured IC50, Vero cell viability (neutralization), Trial 1, 32 pM Toxin A data.
target-of-assay: Clostridium difficile toxin A, soluble full-length (TechLab) (Clostridium difficile, UniProt P16154 1-2710)
test-method-notes: cell-based or functional assay
readout-kind: IC50, Vero cell viability (neutralization), Trial 1, 32 pM Toxin A

>>> result("H2M3121N (antibody, V domains shown, also called H2aM3121N; H1M3121N) VH: EVQLVESGGDLVQPGGSLRLSCAASGVTFRTYEMNWVRQAPGKGLEWISHISSSGDIIYYTKSVKGRFTISRDNAKNSLFLQMTSLRAEDTAVYYCARERYSQYGYYYFGMDVWGQGTTVTVSS VL: DIQMTQSPSTLSASIGDRVTITCRASQNTDKWMAWYQQKAGKAPKLLIYKASILESGVPSRFSGSGSGTEFTLTISSLQPDDFATYYCQEYNTYFRAFGQGTKVETR")
"65 pM"
>>> result("H2M3123N (antibody, V domains shown, also called H2aM3123N; H1M3123N) VH: DVQLVESGGDFVQPGGSLRLSCAASGVAFNDYEMNWIRQAPGKRLEWISHIDSSGTIIYYADSVKGRFTISRDSAKNSLFLQMDSLRAEDTAVYYCARERYSHYGYYYFGMDVWGQGTTVTVSS VL: DIQMTQSPSTLSASVGDRVTITCRASQNIDNWLAWYQQKTGKAPNLLIYKASTLESGVPSRFSGSGSGTEFTLTIISLQPDDFATYYCQEYNTYSRTFGQGTKVEIK")
"65 pM"
>>> result("H1M3117N (antibody, V domains shown) VH: EVQLLESGGGLAQPGGSLRLSCAASGFNFGTHDMSWVRQAPGKGLEWVSGLTSTGGSASSADSVKGRFTISRDNSKNILYLQMNSLRAEDTAVYYCAKTFNWNSYFDYWGQGTLVTVSS VL: EIVLTQSPGTLSLSPGERATLSCRASQSISTYYLAWYQQKPDQPPRLLIYGTSSRATGIPDRFSGSGSGTDFTLTISRLDPEDFAVYYCQQYGNSLYTFGQGTKLEIK")
"29 pM"

Every entry's value here was drawn from patent US20160264650A1.
